Entry source: patent US20240043435A1

Listed here are molecules together with their documented pIC50.
# System: pSTAT5/GM-CSF
# protocol notes: pSTAT5/GM-CSF cellular assay (JAK2 selectivity)
# Type: cell-based
pIC50: −log10 of the molar value.

Study these solved cases before continuing.
Challenge: Quick one: pIC50 for CC(=O)Nc1cc(Nc2cc(OC(C)C)cc(S(C)(=O)=O)n2)c(-c2ccn(C)n2)cn1 [Example J2] ?
Response given: < 5.00

Challenge: Quick one: pIC50 for CC(=O)Nc1cc(Nc2cc(OCC3CC3)cc(S(C)(=O)=O)n2)c(-c2ccn(C)n2)cn1 [Example J3] ?
Response given: < 5.00

Challenge: Quick one: pIC50 for COCCOc1cc(Nc2cc(NC(C)=O)ncc2-c2ccn(C3CC3)n2)nc(S(C)(=O)=O)c1 [Example M4] ?
Response given: < 5.00

More entries:
Challenge: Quick one: pIC50 for CC(=O)Nc1cc(Nc2cccc(S(C)(=O)=O)c2)c(-c2cc(C)nc(C)n2)cn1 [Example A6] ?
Response given: < 5.00

Challenge: Quick one: pIC50 for CO[C@@H]1CCCN(c2cc(Nc3cc(NC(C)=O)ncc3-c3ccc4c(n3)OCC(C)(C)O4)nc(S(C)(=O)=O)c2)C1 [Example Q66] ?
Response given: 5.52
